I'd be grateful if you could share measured growth inhibition for these entries.
experiment: NCI Yeast Anticancer Drug Screen. Data for the mlh1 rad18 strain (AID 175); settings: S. cerevisiae mlh1 rad18 strain growth inhibition; at 5.0 µM (retest, dose inferred, filed as 0.5); hits give high values
This is part of a sample that, as a whole, favours compounds with a hit. Of some 79,000 tested, about 15% had one in any assay.
One number for each entry, in %.

# molecule, reported-measurement
records = [
    ("CCCCCCCN=C(N)c1ccc(C(=O)OCc2ccccc2)cc1", 6),
    ("COc1ccc(C(C#N)=C2C=CC(=NOC(=O)Nc3ccccc3)C=C2)cc1", 33),
    ("CCC1CCC(CC)C1=O (centres undefined)", -2),
]

Quick batch: growth inhibition for everything below.
1. CC(=O)C(=Cc1ccc(C=C(C(C)=O)C(C)=O)cc1)C(C)=O
2. CCCCCCCC/C=C\CCCCCCCCN1CCOCC1
3. CCS(=O)(=O)/C=C/c1ccc2ccccc2n1
4. O=S(=O)(O)c1cc2ccccc2c(O)c1N=Nc1ccccc1
5. Cc1cc(C)c(C(=O)/C=C/C(=O)c2ccccc2)c(C)c1
6. O/N=C(/C[n+]1csc2ccccc21)c1ccccc1

RESULT:
1: 22; 2: -3; 3: -134; 4: 2; 5: 93; 6: 1

Please state growth inhibition for every molecule in the list that follows.
1. CCN(CC)CCNCc1ccccc1
2. Cc1ccc(SSCCCCCS(=O)O)cc1

RESULT:
1: -139; 2: 6

Dear colleague, could you send me growth inhibition for each of the items below? Thanks.
1. Oc1ccc(/C=N/NC(=S)Nc2ccccc2)nc1
2. O=C(O)[C@@H]1CCCC[C@@H]1C(=O)N(C1CCCCC1)C1CCCCC1
3. Cc1cccc(/C=N/Nc2cc(C)c3ccccc3n2)n1
4. C[n+]1c(-c2cccc(OCCCCCCCCOc3cccc(-c4c5cc(N)ccc5c5ccc(N)cc5[n+]4C)c3)c2)c2cc(N)ccc2c2ccc(N)cc21

RESULT:
[0, -39, 14, 96]

For every item below, please supply its growth inhibition.
1. O/N=C/c1cc(Cl)cc(Cl)c1O
2. Cc1ccc(C)c(NC(=O)CCC(=O)C(C#N)c2cccc3ccccc23)c1 (centres undefined)
3. S=C(N/N=C(/c1ccccc1)c1ccccn1)Nc1cccc(Cl)c1

RESULT:
1. 97
2. 1
3. 36

Would you be so kind as to report growth inhibition for each listed record?
1. Nc1ccc(S(=O)(=O)O)c2cccc(S(=O)(=O)O)c12
2. COC(O)C(=O)c1c2c(cc3c1CC1(Cc4cc5c(cc4C1)CCC5)C3)CCC2 (centres undefined)
3. CN(C)C(=O)SC1=C(c2c(Cl)cccc2Cl)C(=O)c2ccccc21
4. CCOC(=O)CCC(NC(=O)c1ccc(NC(OC)c2nc3cc(C(F)(F)F)ccc3nc2-c2ccccc2)cc1)C(=O)OCC (centres undefined)

RESULT:
[-1, 99, 82, 92]

Please supply growth inhibition for each of the following items, keeping them in order.
1. COc1ccc(OC)c(N=Nc2c(C)[nH]n(C(N)=S)c2=O)c1
2. C=CC[C@]1(C(C)C(OC(C)=O)c2ccc3c(c2)OCO3)C[C@@H](OC)C=CC1=O (some centres undefined)
3. CC1SC(=S)N(c2ccc(Cl)cc2)C1=O (centres undefined)
4. Cn1c(N)c(NC(=O)CCl)c(=O)n(C)c1=O
5. COC(=O)c1ccccc1C#Cc1ccccc1C(=O)OC
6. CCC(CC)COC(=O)C(C)=O

RESULT:
11
9
3
7
-3
-1

Go through the items and report each one's growth inhibition.
1. COc1ccc2c(c1OC)C(C(Cl)(Cl)Cl)N1CCc3cc4c(cc3C1=C2)OCO4 (centres undefined)
2. Cc1ccc(N=c2cc(-c3ccccc3)oc3ccccc23)c(C)c1

RESULT:
[11, 4]

Please look at the items below and tell me growth inhibition for each one, in order.
1. COc1ccccc1OC(=O)Oc1ccccc1OC
2. CC(=O)O/C=C\COC(C)=O

RESULT:
[-4, 2]

Could you tell me growth inhibition for each of these molecules? They are listed below.
1. CC(=O)OC1CCC2(C)C3CCC4(C)C(C(C)CCCC(C)C)CCC4C3CCC23OC13C (centres undefined)
2. CN(C)c1ccc(/C=C(\C#N)c2c(F)cccc2F)cc1

RESULT:
1. 24
2. 1
